- assay.explanation: Inhibition of motor coordination (ataxia) in mice
- particulars: mouse, in vivo, sc, 30 minutes after s.c. administration, read-out: ED50 Ataxia (Motor incoordination)
measured.quantity: TD50 at 0.5 h

Q: Name the reported TD50 at 0.5 h value associated with the compound CCOC(=O)c1cc2c(cn1)[nH]c1ccccc12 [OC2 H5, β-carbolin-3-carboxylic acid ethyl ester]
Ans: > 100 mg/kg

Q: If you can, please state the reported TD50 at 0.5 h value of CNC1=Nc2ccc(Cl)cc2C(c2ccccc2)=[N+]([O-])C1 [Chlordiazepoxide, reference compound] .
Ans: 50 mg/kg

Let's switch to this compound now.
Q: Given the entry CCNC(=O)c1cc2c(cn1)[nH]c1ccccc12 [NH(C2 H5)] , report its measured TD50 at 0.5 h.
Ans: > 100 mg/kg

----------
- assay.explanation: Acute toxicity in mice (deaths within 24 hours)
- particulars: mouse, in vivo
measured.quantity: LD50 at 24 h

Q: Using the record for CNC1=Nc2ccc(Cl)cc2C(c2ccccc2)=[N+]([O-])C1 [Chlordiazepoxide, reference compound] , report its LD50 at 24 h.
Ans: 700 mg/kg

---
Q: Any idea what LD50 at 24 h was measured for CCOC(=O)c1cc2c(cn1)[nH]c1ccccc12 [OC2 H5, β-carbolin-3-carboxylic acid ethyl ester] ?
Ans: > 500 mg/kg

Q: LD50 at 24 h lookup needed for CCNC(=O)c1cc2c(cn1)[nH]c1ccccc12 [NH(C2 H5)] , thanks.
Ans: > 250 mg/kg
